Please respond with reported IC50 for every item in the list.
biological target: human plasma butyrylcholinesterase (BChE) (Homo sapiens, UniProt P06276); assay: biochemical
Sequence (P06276 29-602): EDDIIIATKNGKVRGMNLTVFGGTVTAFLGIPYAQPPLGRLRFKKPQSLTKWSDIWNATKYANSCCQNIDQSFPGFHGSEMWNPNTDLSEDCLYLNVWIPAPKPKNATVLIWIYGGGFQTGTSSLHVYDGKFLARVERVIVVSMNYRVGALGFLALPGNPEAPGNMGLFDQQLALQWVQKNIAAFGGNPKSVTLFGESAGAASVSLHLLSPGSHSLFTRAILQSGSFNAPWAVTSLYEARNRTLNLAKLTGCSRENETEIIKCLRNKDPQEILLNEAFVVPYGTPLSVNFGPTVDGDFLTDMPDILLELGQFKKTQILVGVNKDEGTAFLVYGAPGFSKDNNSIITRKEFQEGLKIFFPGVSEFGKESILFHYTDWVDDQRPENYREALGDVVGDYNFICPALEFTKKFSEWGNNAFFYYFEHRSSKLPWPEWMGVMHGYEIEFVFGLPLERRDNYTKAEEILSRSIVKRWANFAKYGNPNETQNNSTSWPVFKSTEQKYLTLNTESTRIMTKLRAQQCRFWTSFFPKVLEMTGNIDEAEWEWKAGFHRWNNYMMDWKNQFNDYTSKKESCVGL
// units = µM; emit number, no label

Inquiry: Data request, read-out IC50, for COc1cc2c(cc1OC)[C@@H]1Cc3cc(OC)c(OC)cc3[C@H](C2)N1C
Reply text: 885

Inquiry: # IC50 lookup, item COc1cc2c(cc1O)[C@@H]1Cc3ccc(OC)c(O)c3[C@H](C2)N1C
Reply text: 837

Inquiry: Find the recorded IC50 belonging to COc1ccc2c(c1OC)CN(C)CCc1cc3c(cc1C(=O)C2)OCO3 and report it.
Reply text: 530
